Molecular target: T1, αvβ3 integrin (UniProt P06756 31-992; P05106 27-718, limits assumed)
T1 construct: Coated on microtiter plates
T1 sequence (P06756 31-992 limits assumed, chain 1 of 2): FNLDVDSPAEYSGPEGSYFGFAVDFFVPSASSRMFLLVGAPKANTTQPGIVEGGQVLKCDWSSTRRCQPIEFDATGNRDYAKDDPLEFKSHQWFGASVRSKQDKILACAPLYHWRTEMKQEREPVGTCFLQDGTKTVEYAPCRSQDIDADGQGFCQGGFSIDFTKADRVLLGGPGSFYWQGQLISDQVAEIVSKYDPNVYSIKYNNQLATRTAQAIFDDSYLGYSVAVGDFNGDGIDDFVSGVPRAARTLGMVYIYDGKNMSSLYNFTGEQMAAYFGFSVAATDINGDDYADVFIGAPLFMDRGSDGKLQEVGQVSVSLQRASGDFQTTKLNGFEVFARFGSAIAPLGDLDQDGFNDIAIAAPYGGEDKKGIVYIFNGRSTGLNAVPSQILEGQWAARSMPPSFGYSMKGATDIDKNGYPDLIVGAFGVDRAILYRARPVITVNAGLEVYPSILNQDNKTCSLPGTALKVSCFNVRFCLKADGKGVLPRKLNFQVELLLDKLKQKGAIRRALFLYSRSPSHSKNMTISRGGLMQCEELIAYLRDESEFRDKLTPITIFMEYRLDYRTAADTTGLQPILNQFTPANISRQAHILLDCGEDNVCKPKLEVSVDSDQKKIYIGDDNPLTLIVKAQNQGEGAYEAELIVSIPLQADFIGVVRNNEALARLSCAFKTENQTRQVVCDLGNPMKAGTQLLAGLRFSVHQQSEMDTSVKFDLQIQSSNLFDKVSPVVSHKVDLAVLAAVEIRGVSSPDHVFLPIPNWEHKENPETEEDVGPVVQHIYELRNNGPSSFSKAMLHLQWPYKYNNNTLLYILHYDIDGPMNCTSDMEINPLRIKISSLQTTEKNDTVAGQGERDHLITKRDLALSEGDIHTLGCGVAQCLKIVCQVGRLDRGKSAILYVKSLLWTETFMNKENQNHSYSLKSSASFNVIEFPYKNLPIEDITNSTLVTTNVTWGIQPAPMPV
T1 sequence (P05106 27-718 limits assumed, chain 2 of 2): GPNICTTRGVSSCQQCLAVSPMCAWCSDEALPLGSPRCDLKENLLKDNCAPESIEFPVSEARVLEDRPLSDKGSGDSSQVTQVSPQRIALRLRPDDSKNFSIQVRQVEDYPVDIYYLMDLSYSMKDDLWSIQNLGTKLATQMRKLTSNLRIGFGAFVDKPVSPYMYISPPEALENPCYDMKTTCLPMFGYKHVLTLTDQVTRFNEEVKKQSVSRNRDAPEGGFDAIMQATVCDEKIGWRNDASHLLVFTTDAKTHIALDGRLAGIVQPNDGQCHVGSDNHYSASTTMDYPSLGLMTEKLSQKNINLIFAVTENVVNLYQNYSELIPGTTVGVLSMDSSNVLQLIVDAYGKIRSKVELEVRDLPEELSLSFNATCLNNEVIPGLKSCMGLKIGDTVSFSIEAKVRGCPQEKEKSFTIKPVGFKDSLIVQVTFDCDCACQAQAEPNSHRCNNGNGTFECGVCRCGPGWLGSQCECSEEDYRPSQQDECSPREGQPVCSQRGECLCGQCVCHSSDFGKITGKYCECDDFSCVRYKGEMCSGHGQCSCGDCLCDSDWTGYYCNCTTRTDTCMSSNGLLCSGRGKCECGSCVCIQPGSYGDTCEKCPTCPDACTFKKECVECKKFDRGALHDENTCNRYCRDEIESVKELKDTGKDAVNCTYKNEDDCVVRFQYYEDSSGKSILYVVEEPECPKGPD
Assay: competitive binding assay, integrin-coated plates; competitor probe acetyl-CisoDGRCG/streptavidin-peroxidase
Starred links: 1 amine or outer side, 2 acyl side, 3 side chain; linkers in the order of their positions; H or OH if unused. Positions of bridges follow the written chain, without caps; N, C: chain ends. Non-standard residues stand in square brackets, D forms with d. No end group written: not given here. βAsp = O=C(O)[C@H](CC(=O)[*:2])N[*:1]
I'd be grateful if you could share measured pKi for these entries.
Give bare numbers, as −log10 of the molar value.

binder	pKi
C[βAsp]GRCGVRY (disulfide 1-5) [CisoDGRCGVRY peptide]	7.96
SCDGRCGVRY [SCDGRCGVRY peptide]	5.48
SC[βAsp]GRCGVRY (disulfide 2-6) [SCisoDGRCGVRY peptide]	7.77

Task: Bench note: what pKi did Ac-C[βAsp]GRCGVRY (disulfide 1-5) [acetyl-CisoDGRCGVRY peptide] show?
Output: 8.52
